Test system: PC-3 prostate
procedureSummary: NCI tumour cell line growth inhibition, 48 h
Exercise: for every item that follows, state its recorded GI50.

Reference set (3 entries):
1. CN(C)CCNC(=O)c1ccc(-c2nc3ccc4[nH]ncc4c3c3c2CCC3)cc1	717 nM
2. Oc1ccc(CSc2nnc(-c3cnccn3)n2-c2ccccc2)c2cccnc12	586 nM
3. COc1cc(/C=N/n2cnc3oc(-c4ccccc4)cc3c2=N)cc(CN2CCCC2)c1O	1500 nM

From here, focus on the item given below.
Item: CCCCCc1ccc(S(=O)(=O)Nc2cccc(-c3csc(NC(=O)CCCCCN4CCN(C)CC4)n3)c2)cc1 | GI50: 2200 nM

* * *

Tested on: ACHN renal
procedureSummary: NCI tumour cell line growth inhibition, 48 h
measurementType: GI50

Reference set (3 entries):
1) CCCCCc1ccc(S(=O)(=O)Nc2cccc(-c3csc(NC(=O)CCCCCN4CCN(C)CC4)n3)c2)cc1	1860 nM
2) CN(C)CCNC(=O)c1ccc(-c2nc3ccc4[nH]ncc4c3c3c2CCC3)cc1	844 nM
3) COc1cc(/C=N/n2cnc3oc(-c4ccccc4)cc3c2=N)cc(CN2CCCC2)c1O	1610 nM

From here, focus on the item given below.
Item: Oc1ccc(CSc2nnc(-c3cnccn3)n2-c2ccccc2)c2cccnc12 | GI50: 641 nM
